Target: Metabotropic glutamate receptor 5 (Rattus norvegicus) (UniProt P31424)
Sequence (P31424 whole entry, looked up): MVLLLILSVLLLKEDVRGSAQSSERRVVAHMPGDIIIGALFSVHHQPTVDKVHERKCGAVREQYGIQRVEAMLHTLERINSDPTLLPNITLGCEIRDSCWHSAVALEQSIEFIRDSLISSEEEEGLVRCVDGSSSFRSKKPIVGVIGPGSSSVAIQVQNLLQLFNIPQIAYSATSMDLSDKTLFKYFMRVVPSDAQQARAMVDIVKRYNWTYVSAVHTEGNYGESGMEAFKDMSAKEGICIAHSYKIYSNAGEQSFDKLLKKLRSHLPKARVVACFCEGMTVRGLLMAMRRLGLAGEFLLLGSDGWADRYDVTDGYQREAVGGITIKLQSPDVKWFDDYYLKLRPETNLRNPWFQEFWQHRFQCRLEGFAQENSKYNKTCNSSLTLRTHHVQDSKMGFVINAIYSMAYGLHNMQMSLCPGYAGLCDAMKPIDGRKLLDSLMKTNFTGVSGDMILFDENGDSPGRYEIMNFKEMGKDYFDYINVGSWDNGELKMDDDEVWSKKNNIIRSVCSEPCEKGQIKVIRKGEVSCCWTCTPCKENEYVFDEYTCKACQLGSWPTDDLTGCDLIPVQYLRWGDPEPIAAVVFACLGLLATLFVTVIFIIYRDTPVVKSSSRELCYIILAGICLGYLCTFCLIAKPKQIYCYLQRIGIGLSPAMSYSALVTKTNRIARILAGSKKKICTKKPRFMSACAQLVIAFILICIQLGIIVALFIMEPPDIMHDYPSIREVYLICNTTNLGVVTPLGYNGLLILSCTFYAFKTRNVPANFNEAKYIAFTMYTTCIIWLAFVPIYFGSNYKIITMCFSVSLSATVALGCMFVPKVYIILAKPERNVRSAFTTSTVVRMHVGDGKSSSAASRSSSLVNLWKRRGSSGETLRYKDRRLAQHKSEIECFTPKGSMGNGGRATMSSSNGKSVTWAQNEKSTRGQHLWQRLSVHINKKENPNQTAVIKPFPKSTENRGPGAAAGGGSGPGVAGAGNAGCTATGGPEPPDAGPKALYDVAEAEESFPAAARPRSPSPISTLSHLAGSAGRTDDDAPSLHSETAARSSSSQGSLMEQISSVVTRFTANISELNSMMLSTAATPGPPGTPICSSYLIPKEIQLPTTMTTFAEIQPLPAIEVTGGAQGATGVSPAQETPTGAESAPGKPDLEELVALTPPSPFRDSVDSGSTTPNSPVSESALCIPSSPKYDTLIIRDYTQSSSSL
Experiment: Activity in agonist-induced phosphoinositide hydrolysis in CHO cells expressing mGluR5a
pIC50: −log10 of the molar value.
attributeMeasured: pIC50

Qu. Please report the recorded pIC50 for `Cc1nc(C#Cc2ccc3[nH]ccc3c2)cs1` .
Ans. < 5.00

Qu. Same lookup for `COC(=O)Nc1nc(C#Cc2cccnc2)cs1` , please.
Ans. < 5.00

Qu. Same lookup for `C(#Cc1csc(NCc2ccccc2)n1)c1cccnc1` , please.
Ans. < 5.00

Qu. Same lookup for `Cc1nc(C#Cc2ccc3nccnc3c2)cs1` , please.
Ans. < 5.00

Qu. Same lookup for `Cc1nc(C#Cc2cccc(F)c2)co1` , please.
Ans. < 5.00

Others:
Qu. Please report the recorded pIC50 for `Cc1nc(C#Cc2cccnc2OS(C)(=O)=O)cs1` .
Ans. < 5.00

Qu. Same lookup for `Cc1nc(C#Cc2cccnc2)c(-c2ccccc2)s1` , please.
Ans. < 5.00

Where these numbers come from: ChEMBL document CHEMBL1149388
